Tested on: Peripheral blood mononuclear cells co-cultured with venular endothelial cells (HUVEC) (LPS system)
Test: BioMAP LPS system
Type: cell-based, human
Details: Homo sapiens, HUVEC, 24 h; 10 uM; procedure of Example 827; read-out: % decrease in IL-1α
Value type: inhibition at 10 µM

* CC(=O)CC(=O)SCCNC(=O)CCNC(=O)[C@H](O)C(C)(C)COC(=O)O[C@H](CC(=O)[O-])C[N+](C)(C)C [Compound 185] | ≥ 10%
* COC(=O)CCC(=O)SCCNC(=O)CCNC(=O)[C@H](OC(C)=O)C(C)(C)CO [Compound 213] | ≥ 20%
* COC(=O)CCC(=O)SCCNC(=O)CCNC(=O)[C@H](OC(=O)CNC(C)=O)C(C)(C)CO [Compound 1298] | ≥ 10%
* CC(C)(COC(=O)OCC[N+](C)(C)C)[C@@H](O)C(=O)NCCC(=O)NCCSC(=O)CCC(=O)O [Compound 116] | ≥ 10%
* COC(=O)CC(SCCNC(=O)CCNC(=O)[C@H](O)C(C)(C)COC(C)=O)C(=O)OC (stereo partly drawn) [Compound 149] | ≥ 10%
* CCC(=O)OCC(C)(C)[C@@H](O)C(=O)NCCC(=O)NCCSC(=O)CCC(=O)O [Compound 157] | ≥ 10%
* CC(=O)SCCNC(=O)CCNC(=O)[C@H](O)C(C)(C)COC(=O)[C@@H](N)Cc1ccc(O)c(O)c1 [Compound 498] | ≥ 10%
* CC(C)(CO)[C@@H](O)C(=O)NCCC(=O)NCCS [Prep Ex 5] | ≥ 20%
* COC(=O)/C=C/C(=O)SCCNC(=O)CCNC(=O)[C@H](O)C(C)(C)COC(C)=O [Compound 145] | ≥ 10%

* * *

Tested on: Venular Endothelial cells (HUVEC) (3C system)
Experiment: BioMAP 3C system (IL-1β, TNFα, IFNγ)
Type: cell-based, human
Settings: 10 uM; procedure of Example 825
Value type: % increase in Proliferation (HUVEC)

- CC(C)(CO)[C@@H](O)C(=O)NCCC(=O)NCCSC(=O)[C@@H](N)Cc1ccc(O)c(O)c1: ≥10%
- CC(=O)OCC(C)(C)[C@@H](OC(C)=O)C(=O)NCCC(=O)NCCSC(C)=O: ≥10%
- COC(=O)CCC(=O)SCCNC(=O)CCNC(=O)[C@H](O)C(C)(C)COC(=O)OCC[N+](C)(C)C: ≥10%
- CCCCCCC(=O)SCCNC(=O)CCNC(=O)[C@H](O)C(C)(C)CO: ≥20%
- COC(=O)CCC(=O)SCCNC(=O)CCNC(=O)[C@H](OC(=O)CN)C(C)(C)CO: ≥20%
- CC(=O)OCCCC(=O)SCCNC(=O)CCNC(=O)[C@H](O)C(C)(C)CO: ≥20%
